Entries and their pEC50
- experimental system: recombinant human nicotinic acid receptor (NAR) (Homo sapiens, UniProt Q8TDS4)
- Sequence (Q8TDS4 whole entry): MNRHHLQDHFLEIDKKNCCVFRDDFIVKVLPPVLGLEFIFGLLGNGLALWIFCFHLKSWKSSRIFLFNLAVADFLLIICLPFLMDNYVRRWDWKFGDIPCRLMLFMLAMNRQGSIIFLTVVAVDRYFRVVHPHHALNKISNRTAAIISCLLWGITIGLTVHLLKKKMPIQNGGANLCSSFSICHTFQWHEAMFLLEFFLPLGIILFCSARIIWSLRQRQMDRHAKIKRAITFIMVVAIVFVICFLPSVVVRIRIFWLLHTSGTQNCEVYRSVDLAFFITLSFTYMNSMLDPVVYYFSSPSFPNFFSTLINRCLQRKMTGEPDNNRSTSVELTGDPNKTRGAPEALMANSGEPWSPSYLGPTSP
- experiment: Nicotinic Acid Receptor Assay: inhibition of forskolin-stimulated cAMP accumulation in CHO cells (MesoScale Discovery cAMP kit)
- Format: cell-based
- condition parameters: CHO cells expressing recombinant human NAR; forskolin-stimulated cAMP; read-out: NA EC50 camp
pEC50: −log10 of the molar value.
measurement name: pEC50

compound | result
O=c1cc(CCc2cccs2)c2c(=O)n(C3CCC3)c(=O)[nH]c2o1 [Compound 282] | 6.00 to 7.00
CCc1cc(=O)oc2nc(OCCCSC)[nH]c(=O)c12 [Compound 642] | 6.00 to 7.00
CCC#CC(C)Oc1nc2oc(=O)cc(CC)c2c(=O)[nH]1 (centres unmarked) [Compound 639] | 6.00 to 7.00
CCc1cc(=O)oc2nc(OCc3snnc3-c3ccccc3)[nH]c(=O)c12 [Compound 532] | 6.00 to 7.00
COCC#CCOc1nc2oc(=O)cc(Cc3ccc(F)cc3)c2c(=O)[nH]1 [Compound 661] | 6.00 to 7.00

====

- experimental system: recombinant human nicotinic acid receptor (NAR) (Homo sapiens, UniProt Q8TDS4)
- experiment: Nicotinic Acid Receptor Assay: inhibition of forskolin-stimulated cAMP accumulation in CHO cells (MesoScale Discovery cAMP kit)
- Assay type: cell-based
- condition parameters: inhibition of forskolin-stimulated cAMP accumulation, CHO cells expressing recombinant human NAR; read-out: NA EC50 camp
measurement name: EC50 (nM)

entry smiles | measurement name | comparison symbol | number
CCc1cc(=O)oc2[nH]c(=O)n(OC)c(=O)c12 | EC50 | = | 384
CCCCc1cc(=O)oc2c1c(=O)[nH]c(=O)n2N1CCOCC1 | EC50 | > | 10000
O=c1[nH]c(=O)c2c(CC3CC3)cc(=O)oc2[nH]1 | EC50 | = | 155
COn1c(=O)nc(OCCF)c2c(CCC3CCC3)cc(=O)oc21 | EC50 | = | 3250

====

- experimental system: recombinant human nicotinic acid receptor (NAR) (Homo sapiens)
- experiment: Nicotinic Acid Receptor Assay: inhibition of forskolin-stimulated cAMP accumulation in CHO cells (MesoScale Discovery cAMP kit)
- Format: cell-based
- condition parameters: CHO cells expressing recombinant human NAR; forskolin-stimulated cAMP; read-out: NA EC50 camp
pEC50: −log10 of the molar value.

molecule | experimental system | pEC50
CCc1cc(=O)oc2nc(OCc3ccccc3-n3cncn3)[nH]c(=O)c12 | recombinant human nicotinic acid receptor (NAR) (Homo sapiens) | 6.00 to 7.00
CCOc1ccc(-c2c(CCC3CCC3)c3c(=O)[nH]c(=O)[nH]c3oc2=O)cc1 | recombinant human nicotinic acid receptor (NAR) (Homo sapiens) | < 6.00
O=c1[nH]c(=O)c2c(CC3CCCC(C(F)(F)F)C3)cc(=O)oc2[nH]1 (stereo not drawn) | recombinant human nicotinic acid receptor (NAR) (Homo sapiens) | 6.00 to 7.00
CC1CC1CCc1cc(=O)oc2[nH]c(=O)[nH]c(=O)c12 (stereo not drawn) | recombinant human nicotinic acid receptor (NAR) (Homo sapiens) | 6.00 to 7.00
CC(C)(C)OC(=O)N1CCC(Cc2cc(=O)oc3[nH]c(=O)[nH]c(=O)c23)CC1 | recombinant human nicotinic acid receptor (NAR) (Homo sapiens) | < 6.00
CCc1cc(=O)oc2nc(OCc3cc(C)cc(C)c3)[nH]c(=O)c12 | recombinant human nicotinic acid receptor (NAR) (Homo sapiens) | 6.00 to 7.00
CCc1cc(=O)oc2nc(OCCS(=O)(=O)c3ccc(Cl)cc3)[nH]c(=O)c12 | recombinant human nicotinic acid receptor (NAR) (Homo sapiens) | 7.00 to 12.00
CCc1cc(=O)oc2nc(OCc3ccc(C#N)cc3)[nH]c(=O)c12 | recombinant human nicotinic acid receptor (NAR) (Homo sapiens) | < 6.00
CCc1cc(=O)oc2nc(OCc3ccc4ccccc4n3)[nH]c(=O)c12 | recombinant human nicotinic acid receptor (NAR) (Homo sapiens) | 6.00 to 7.00
CCc1cc(=O)oc2nc(OCCN3CCCC3)[nH]c(=O)c12 | recombinant human nicotinic acid receptor (NAR) (Homo sapiens) | < 6.00
CCc1cc(=O)oc2nc(OCC(N)=O)[nH]c(=O)c12 | recombinant human nicotinic acid receptor (NAR) (Homo sapiens) | 6.00 to 7.00
C#CCCCCc1cc(=O)oc2[nH]c(=O)[nH]c(=O)c12 | recombinant human nicotinic acid receptor (NAR) (Homo sapiens) | 7.00 to 12.00
CCc1cc(=O)oc2nc(OCc3cc4ccccc4s3)[nH]c(=O)c12 | recombinant human nicotinic acid receptor (NAR) (Homo sapiens) | 6.00 to 7.00
CCC(CC)CCc1cc(=O)oc2[nH]c(=O)[nH]c(=O)c12 | recombinant human nicotinic acid receptor (NAR) (Homo sapiens) | 6.00 to 7.00
CCc1cc(=O)oc2nc(OCc3ccc(Cl)c(C(F)(F)F)c3)[nH]c(=O)c12 | recombinant human nicotinic acid receptor (NAR) (Homo sapiens) | 6.00 to 7.00
CCc1cc(=O)oc2nc(OCc3ccc(Cl)cc3OC)[nH]c(=O)c12 | recombinant human nicotinic acid receptor (NAR) (Homo sapiens) | 6.00 to 7.00
CCCCc1c(-c2ccc(C(F)(F)F)cc2)c(=O)oc2[nH]c(=O)[nH]c(=O)c12 | recombinant human nicotinic acid receptor (NAR) (Homo sapiens) | 6.00 to 7.00
CCc1c(C#Cc2ccccc2)c(=O)oc2[nH]c(=O)[nH]c(=O)c12 | recombinant human nicotinic acid receptor (NAR) (Homo sapiens) | < 6.00

====

- experimental system: recombinant human nicotinic acid receptor (NAR) (Homo sapiens, UniProt Q8TDS4)
- experiment: Nicotinic Acid Receptor Assay: inhibition of forskolin-stimulated cAMP accumulation in CHO cells (MesoScale Discovery cAMP kit)
- Type: cell-based
- condition parameters: CHO cells expressing recombinant human NAR; forskolin-stimulated cAMP; read-out: NA EC50 camp

molecule | EC50
CCc1cc(=O)oc2nc(OCc3cnco3)[nH]c(=O)c12 | > 1000 nM
CCc1cc(=O)oc2nc(OCCCS(C)(=O)=O)[nH]c(=O)c12 | 100 to 1000 nM
COC(=O)CCc1cc(=O)oc2[nH]c(=O)[nH]c(=O)c12 | 100 to 1000 nM
O=C(OCc1ccccc1)N1CCC(Cc2cc(=O)oc3[nH]c(=O)[nH]c(=O)c23)C1 (stereo not drawn) | > 1000 nM
CCc1cc(=O)oc2nc(OCCOc3cccc(C)c3)[nH]c(=O)c12 | 100 to 1000 nM
CCc1cc(=O)oc2nc(OCc3ccncc3)[nH]c(=O)c12 | 0.001 to 100 nM
CCc1noc(C)c1COc1nc2oc(=O)cc(CCC(C)C)c2c(=O)[nH]1 | 100 to 1000 nM
CCOc1nc2oc(=O)cc(CCC(C)C)c2c(=O)[nH]1 | 100 to 1000 nM
CCc1cc(=O)oc2nc(OCC(C)(C)S(=O)(=O)c3ccc(Cl)cc3)[nH]c(=O)c12 | > 1000 nM

====

- experimental system: recombinant human nicotinic acid receptor (NAR) (Homo sapiens, UniProt Q8TDS4)
- experiment: Nicotinic Acid Receptor Assay: inhibition of forskolin-stimulated cAMP accumulation in CHO cells (MesoScale Discovery cAMP kit)
- Format: cell-based
- condition parameters: CHO cells expressing recombinant human NAR; forskolin-stimulated cAMP; read-out: NA EC50 camp

compound | EC50
CCc1cc(=O)oc2nc(OC3CCSCC3)[nH]c(=O)c12 [Compound 605] | > 1000 nM
CCOC(=O)NOc1nc2oc(=O)cc(CCC3CCCC3)c2c(=O)[nH]1 [Compound 693] | 100 to 1000 nM
CCc1cc(=O)oc2nc(OCCSc3ccccn3)[nH]c(=O)c12 [Compound 655] | 100 to 1000 nM
CN(C)CCOc1nc2oc(=O)cc(Cc3cccc(F)c3)c2c(=O)[nH]1 [Compound 683] | > 1000 nM
CCc1cc(=O)oc2nc(OCCN(C)C)[nH]c(=O)c12 [Compound 652] | 0.001 to 100 nM
CCc1cc(=O)oc2nc(OCc3ocnc3C)[nH]c(=O)c12 [Compound 513] | 100 to 1000 nM
CC/C=C\CCc1cc(=O)oc2[nH]c(=O)n(CC3CC3)c(=O)c12 [Compound 254] | > 1000 nM
CCc1cc(=O)oc2nc(O[C@@H](C)c3ccc4ccccc4c3)[nH]c(=O)c12 [Compound 501] | 0.001 to 100 nM
CCc1cc(=O)oc2nc(OCc3cc(Br)cs3)[nH]c(=O)c12 [Compound 534] | 100 to 1000 nM

====

The molecules listed here are annotated with their EC50.
- experimental system: recombinant human nicotinic acid receptor (NAR) (Homo sapiens, UniProt Q8TDS4)
- experiment: Nicotinic Acid Receptor Assay: inhibition of forskolin-stimulated cAMP accumulation in CHO cells (MesoScale Discovery cAMP kit)
- Format: cell-based
- condition parameters: CHO cells expressing recombinant human NAR; forskolin-stimulated cAMP; read-out: NA EC50 camp

entry smiles | experimental system | EC50
CCc1cc(=O)oc2nc(OCc3sccc3-n3cccc3)[nH]c(=O)c12 | recombinant human nicotinic acid receptor (NAR) (Homo sapiens, UniProt Q8TDS4) | > 1000 nM
O=c1[nH]c(=O)c2c(CCCOC3CCC3)cc(=O)oc2[nH]1 | recombinant human nicotinic acid receptor (NAR) (Homo sapiens, UniProt Q8TDS4) | 100 to 1000 nM
CCc1cc(=O)oc2nc(OCCSc3ccc(Cl)cc3)[nH]c(=O)c12 | recombinant human nicotinic acid receptor (NAR) (Homo sapiens, UniProt Q8TDS4) | > 1000 nM
CCOc1nc2oc(=O)cc(CCC3CCCC3)c2c(=O)[nH]1 | recombinant human nicotinic acid receptor (NAR) (Homo sapiens, UniProt Q8TDS4) | 100 to 1000 nM
CCc1cc(=O)oc2nc(OCCOc3ccccc3F)[nH]c(=O)c12 | recombinant human nicotinic acid receptor (NAR) (Homo sapiens, UniProt Q8TDS4) | 100 to 1000 nM
